Parameter Toxicity, tested on HepG2 cells, listed per item.

# example entries with known answers
compound	result
CC(=O)Nc1ccc(O)cc1 [MI1, Acetaminophen]	None
C[C@]12CC[C@@H](O)C[C@@H]1CC[C@@H]1[C@@H]2[C@@H](O)C[C@]2(C)[C@@H](C(=O)CO)CC[C@@H]12 [PR20, 5α-Pregnan-3α,11β,21-triol-20-one]	None
C[C@]12CC[C@@H]3c4cc(O)c(O)cc4CC[C@H]3[C@@H]1CCC2=O [ES7, 1,3,5(10)-Estratrien-2,3-diol-17-one]	None
CC(C)[C@@H](C)/C=C/[C@@H](C)[C@H]1CC[C@H]2C3=CC=C4C[C@@H](O)CC[C@]4(C)[C@H]3CC[C@]12C [MI29, Provitamin D2]	20 µM

Here are 2 compounds. What values of Toxicity were reported for them?
1. C[C@]12CCC(=O)C[C@@H]1CC[C@@H]1[C@@H]2CC[C@]2(C)C(=O)CC[C@@H]12 [AN2, 5α-Androstan-3,17-dione]
2. C[C@]12CC[C@@H](O)C[C@H]1CC[C@@H]1[C@@H]2C(=O)C[C@@]2(C)[C@H]1CC[C@]2(O)C(=O)CO [PR19, 5β-Pregnan-3α,17,21-triol-11,20-dione]

1: None; 2: None

====

Provide the recorded pEC50 for the entries that follow.
# target-or-system: rabbit PXR (Oryctolagus cuniculus, UniProt Q9TU02)
# Sequence (Q9TU02 1-411): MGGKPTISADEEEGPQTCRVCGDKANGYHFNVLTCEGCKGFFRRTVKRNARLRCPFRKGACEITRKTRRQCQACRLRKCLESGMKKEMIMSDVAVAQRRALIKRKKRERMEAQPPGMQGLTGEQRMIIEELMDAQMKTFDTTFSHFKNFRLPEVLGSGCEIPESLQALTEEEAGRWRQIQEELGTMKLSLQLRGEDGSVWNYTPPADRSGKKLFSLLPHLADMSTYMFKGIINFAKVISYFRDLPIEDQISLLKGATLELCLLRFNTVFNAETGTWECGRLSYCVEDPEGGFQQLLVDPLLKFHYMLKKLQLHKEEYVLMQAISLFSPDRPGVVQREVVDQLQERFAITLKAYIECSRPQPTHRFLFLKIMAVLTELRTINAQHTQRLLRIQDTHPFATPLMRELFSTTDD
# assay-notes: PXR activation luciferase reporter assay, rabbit PXR
One number for each entry, as −log10 of the molar value.

Value sought for every listed molecule: pEC50.
1. CC(CCCC(CO)COS(=O)(=O)O)[C@H]1CCC2C3C(C[C@H](O)[C@@]21C)[C@@]1(C)CC[C@@H](O)C[C@@H]1C[C@H]3O (stereo partly drawn)
2. CC(CCC(=O)NCC(=O)O)C1CCC2C3CCC4CC(O)CCC4(C)C3CC(O)C12C (stereo not drawn)
3. C[C@H](CCC(=O)O)[C@H]1CC[C@H]2[C@@H]3CC[C@@H]4C[C@H](O)CC[C@]4(C)[C@H]3C[C@H](O)[C@]12C

[4.09, 4.81, 4.44]

====

Parameter Toxicity, tested on HepG2 cells, listed per item.

compound	Toxicity
C[C@]12CC[C@H]3[C@@H](CCC4=CC(=O)CC[C@@]43C)[C@@H]1CC[C@@H]2O	None
C[C@H](CCCOS(=O)(=O)O)[C@H]1CC[C@H]2[C@@H]3[C@H](O)C[C@H]4CC(=O)CC[C@]4(C)[C@H]3C[C@H](O)[C@]12C [BI32, 5α-Cholan-7α,12α-diol-3-one-24-sulfate]	None
Cc1cc(O)c(C)c2c1O[C@](C)(CCC[C@H](C)CCC[C@H](C)CCCC(C)C)CC2	100 µM

====

Consider the following compounds; for each one, report its Toxicity.
# Tested on: HepG2 cells
# assay-notes: Toxicity assays in HepG2 cells (MTT and alamar blue reduction)
# condition-label: lowest concentration that produced significant toxicity in the HepG2 cells
Answers are plain numbers, in µM.

Answered cases to consult:
compound	Toxicity, µM
NC(=O)N1c2ccccc2C2OC2c2ccccc21 (centres unmarked) [MI8, Carbamazepine epoxide]	200
O=C(O)Cc1cccc(OCCCN(Cc2cccc(C(F)(F)F)c2Cl)CC(c2ccccc2)c2ccccc2)c1	10
Clc1cnc(Oc2ccc(Oc3ncc(Cl)cc3Cl)cc2)c(Cl)c1	200
Cc1c(O)cc2c(c1C)O[C@](C)(CCC[C@H](C)CCC[C@H](C)CCCC(C)C)CC2	100

Let me know recorded Toxicity for `C[C@@]12CCC[C@H]1[C@@H]1CC[C@H]3CCCC[C@]3(C)[C@H]1CC2` , thanks.
100

====

# target-or-system: rat PXR (Rattus norvegicus, UniProt Q9R1A7)
# Sequence (Q9R1A7 1-431): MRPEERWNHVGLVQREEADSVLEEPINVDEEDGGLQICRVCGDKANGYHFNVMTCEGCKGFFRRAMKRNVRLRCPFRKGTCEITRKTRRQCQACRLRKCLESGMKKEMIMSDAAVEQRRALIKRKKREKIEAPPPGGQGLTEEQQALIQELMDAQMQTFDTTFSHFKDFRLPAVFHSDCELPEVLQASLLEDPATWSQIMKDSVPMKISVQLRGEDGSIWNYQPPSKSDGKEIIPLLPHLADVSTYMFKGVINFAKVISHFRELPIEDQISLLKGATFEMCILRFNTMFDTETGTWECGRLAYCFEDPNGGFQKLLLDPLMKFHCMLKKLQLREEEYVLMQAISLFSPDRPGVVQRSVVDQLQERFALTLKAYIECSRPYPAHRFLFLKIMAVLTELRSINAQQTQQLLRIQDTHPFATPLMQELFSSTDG
# condition-label: -log(EC50), EC50 in molar units

compound	Rat PXR Activity
C[C@H](CCC(=O)NCC(=O)O)[C@H]1CC[C@H]2[C@@H]3[C@H](O)C[C@@H]4C[C@H](O)CC[C@]4(C)[C@H]3C[C@H](O)[C@]12C [BI021, Glycocholic acid]	No effect
C[C@H](CCC(=O)NCCS(=O)(=O)O)[C@H]1CC[C@H]2[C@@H]3[C@H](O)C[C@@H]4C[C@H](O)CC[C@]4(C)[C@H]3C[C@H](O)[C@]12C [BI022, Taurocholic acid]	No effect
C[C@H](CCC(=O)O)[C@H]1CC[C@H]2[C@@H]3[C@H](O)[C@@H](O)[C@@H]4C[C@H](O)CC[C@]4(C)[C@H]3CC[C@]12C [BI018, α-Muricholic acid]	3.95
CC(CCC(=O)O)C1CCC2C3C(O)C(O)C4CC(O)CCC4(C)C3CCC12C (stereo not shown) [BI017, ω-Muricholic acid]	No effect

====

Kindly state hPXR Efficacy for each of the entries shown.
# target-or-system: human PXR (Homo sapiens, UniProt O75469)
# Sequence (O75469 whole entry): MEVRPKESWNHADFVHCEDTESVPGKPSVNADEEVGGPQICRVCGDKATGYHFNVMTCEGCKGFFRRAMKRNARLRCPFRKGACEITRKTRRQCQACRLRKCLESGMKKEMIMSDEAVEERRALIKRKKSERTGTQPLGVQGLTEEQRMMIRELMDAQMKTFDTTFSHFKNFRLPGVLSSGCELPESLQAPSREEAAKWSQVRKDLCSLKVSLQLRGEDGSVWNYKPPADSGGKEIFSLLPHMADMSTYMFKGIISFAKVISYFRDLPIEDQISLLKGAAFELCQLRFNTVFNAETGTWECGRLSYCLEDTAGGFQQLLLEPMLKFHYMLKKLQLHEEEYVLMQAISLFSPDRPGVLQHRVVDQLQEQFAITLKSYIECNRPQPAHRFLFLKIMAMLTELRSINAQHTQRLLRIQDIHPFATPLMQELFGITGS
# condition-label: human
Answers are plain numbers.

>>> df
                                   compound     value_kind  result
0  C[C@@]12CCC[C@H]1[C@@H]1CC[C@H]3C[C@H](O)CC[C@]3(C)[C@H]1CC2 [AN3, 5α-Androstan-3α-ol]  hPXR Efficacy     0.5
1  C[C@@]12CCC[C@H]1[C@@H]1CC[C@@H]3C[C@H](O)CC[C@]3(C)[C@H]1CC2 [AN23, 5β-Androstan-3α-ol]  hPXR Efficacy    1.12

Next compound, hPXR Efficacy to be filled in.
Using the record for CCC1(c2ccccc2)C(=O)NC(=O)NC1=O [MI25, Phenobarbital] , state its measured hPXR Efficacy.
1.19

====

Entries below carry reported Toxicity on HepG2 cells.
Numbers only, in µM.

Some solved cases for reference:
molecule	Toxicity, µM
C[C@H](CCCO)[C@H]1CC[C@H]2[C@@H]3[C@H](O)C[C@H]4C[C@H](O)CC[C@]4(C)[C@H]3C[C@H](O)[C@]12C	50
C[C@H](CCC(O)C(CO)COS(=O)(=O)O)[C@H]1CC[C@H]2[C@@H]3[C@H](O)C[C@@H]4C[C@H](O)CC[C@]4(C)[C@H]3C[C@H](O)[C@]12C (stereo partly drawn)	200

Field: next molecule
Enter measured Toxicity, system HepG2 cells, for the molecule shown: `C[C@@H](O)[C@@]1(O)CC[C@H]2[C@@H]3CCC4=CC(=O)CC[C@]4(C)[C@H]3CC[C@@]21C`
200

====

# System: HepG2 cells
# condition-label: human, 24 hr
Record form. Attribute: Toxicity. Fill in for each entry.
Report the figure along with its unit, number first.

Some compounds with known Toxicity results, for comparison:
In [3]: df
Out[3]:
                                   compound  result
0  CC[C@H](C)C(=O)O[C@H]1CCC=C2C=C[C@H](C)[C@H](CC[C@@H]3C[C@@H](O)CC(=O)O3)[C@H]21   15 µM
1                    CC1=CC(=O)c2ccccc2C1=O  100 µM
2  CC(CO)CCC[C@@H](C)[C@H]1[C@H](O)C[C@H]2[C@@H]3[C@H](O)C[C@H]4C[C@@H](O)CC[C@]4(C)[C@H]3CC[C@]12C (stereo partly drawn)  100 µM
3  C[C@]12CC[C@@H]3c4ccc(O)cc4CC[C@H]3[C@@H]1CCC2=O  200 µM
4  C[C@@]12CCC[C@H]1[C@@H]1CC[C@H]3C[C@@H](O)CC[C@]3(C)[C@H]1CC2   50 µM

Input `COC(=O)[C@H]1[C@H]2C[C@@H]3c4[nH]c5cc(OC)ccc5c4CCN3C[C@H]2C[C@@H](OC(=O)c2cc(OC)c(OC)c(OC)c2)[C@@H]1OC` , output reported Toxicity.
50 µM
